Quick list: fold change of 2-Phenylethylamine concentration per entry.
system: Ruminococcus gnavus DSM 108212; assay: fold change of 2-Phenylethylamine concentration vs plate DMSO controls (fold change (ratio)); higher = more amine produced; details: 10 µM; incubation time: 27 h, anaerobic, 37 °C
Counter-ions that a name gives are not always drawn.
observable: fold change of 2-Phenylethylamine concentration

• CN1CCN(c2c(F)cc3c(=O)c(C(=O)O)cn4c3c2SCC4)CC1 [Rufloxacin] = 1.22
• CCn1cc(C(=O)O)c(=O)c2cc(F)c(N3CCNCC3)nc21 [Enoxacin] = 1.04
• CN(C)[C@@H]1C(=O)C(C(N)=O)=C(O)[C@@]2(O)C(=O)C3=C(O)c4c(O)cccc4[C@@](C)(O)[C@H]3[C@H](O)[C@@H]12 [Oxytetracycline dihydrate] = 2.02
• CCN1CCN(C(=O)N[C@@H](C(=O)N[C@@H]2C(=O)N3C(C(=O)O)=C(CSc4nnnn4C)CS[C@H]23)c2ccc(O)cc2)C(=O)C1=O [Cefoperazone dihydrate] = 0.105
• CS(=O)(=O)c1ccc([C@@H](O)[C@@H](CO)NC(=O)C(Cl)Cl)cc1 [Thiamphenicol] = 0.3
• C[C@@H](O)[C@H]1C(=O)N2C(C(=O)O)=C(S[C@@H]3CN[C@H](C(=O)N(C)C)C3)[C@H](C)[C@H]12 [Meropenem] = 0.162
• CO/N=C(\C(=O)N[C@@H]1C(=O)N2C(C(=O)[O-])=C(C[n+]3ccn4ncccc43)CS[C@H]12)c1nsc(N)n1 [Cefozopran hydrochloride] = 0.101
• COc1c(N2CCNC(C)C2)c(F)cc2c(=O)c(C(=O)O)cn(C3CC3)c12 (stereo not drawn) [Gatifloxacin] = 1.22

---

system: Escherichia coli IAI1; test: fold change of Cadaverine concentration vs plate DMSO controls (fold change (ratio)); higher = more amine produced; settings: 5 µM; incubation time: 27 h, anaerobic, 37 °C
Counter-ions that a name gives are not always drawn.
Label met when fold change of Cadaverine concentration >= 1; otherwise not met.

* CCn1cc(C(=O)O)c(=O)c2cc(F)c(N3CCNCC3)nc21 | not met
* CCN1CCN(C(=O)N[C@@H](C(=O)N[C@@H]2C(=O)N3C(C(=O)O)=C(CSc4nnnn4C)CS[C@H]23)c2ccc(O)cc2)C(=O)C1=O [Cefoperazone dihydrate] | met
* C=CC1=C(C(=O)O)N2C(=O)[C@@H](NC(=O)/C(=N\OCC(=O)O)c3csc(N)n3)[C@H]2SC1 | met
* CO[C@@]12[C@H](COC(N)=O)C3=C(C(=O)C(C)=C(N)C3=O)N1C[C@@H]1N[C@@H]12 | met
* CO/N=C(\C(=O)N[C@@H]1C(=O)N2C(C(=O)[O-])=C(C[n+]3ccn4ncccc43)CS[C@H]12)c1nsc(N)n1 [Cefozopran hydrochloride] | not met
* CO/N=C(\C(=O)N[C@@H]1C(=O)N2C(C(=O)O)=C(COC(N)=O)CS[C@H]12)c1ccco1 [Cefuroxime sodium salt] | met
* C=CC1=C(C(=O)O)N2C(=O)[C@@H](NC(=O)/C(=N\O)c3csc(N)n3)[C@H]2SC1 | not met

---

system: Escherichia coli IAI1; test: fold change of Cadaverine concentration vs plate DMSO controls (fold change (ratio)); higher = more amine produced; conditions: 0.6125 µM; incubation time: 27 h, anaerobic, 37 °C
Structures can show the parent of a compound that is named as a salt.
observable: fold change of Cadaverine concentration

* CO/N=C(\C(=O)N[C@@H]1C(=O)N2C(C(=O)[O-])=C(C[n+]3ccn4ncccc43)CS[C@H]12)c1nsc(N)n1 [Cefozopran hydrochloride] | 0.986
* C=CC1=C(C(=O)O)N2C(=O)[C@@H](NC(=O)/C(=N\OCC(=O)O)c3csc(N)n3)[C@H]2SC1 | 1.07
* CCN1CCN(C(=O)N[C@@H](C(=O)N[C@@H]2C(=O)N3C(C(=O)O)=C(CSc4nnnn4C)CS[C@H]23)c2ccc(O)cc2)C(=O)C1=O [Cefoperazone dihydrate] | 1.07
* C=CC1=C(C(=O)O)N2C(=O)[C@@H](NC(=O)/C(=N\O)c3csc(N)n3)[C@H]2SC1 | 1.1
* CO/N=C(\C(=O)N[C@@H]1C(=O)N2C(C(=O)O)=C(COC(N)=O)CS[C@H]12)c1ccco1 [Cefuroxime sodium salt] | 1.11
* CCn1cc(C(=O)O)c(=O)c2cc(F)c(N3CCNCC3)nc21 | 1.43
* CO[C@@]12[C@H](COC(N)=O)C3=C(C(=O)C(C)=C(N)C3=O)N1C[C@@H]1N[C@@H]12 | 1.42
